- testTarget: UniProtKB P00533
- Sequence (P00533 25-1210): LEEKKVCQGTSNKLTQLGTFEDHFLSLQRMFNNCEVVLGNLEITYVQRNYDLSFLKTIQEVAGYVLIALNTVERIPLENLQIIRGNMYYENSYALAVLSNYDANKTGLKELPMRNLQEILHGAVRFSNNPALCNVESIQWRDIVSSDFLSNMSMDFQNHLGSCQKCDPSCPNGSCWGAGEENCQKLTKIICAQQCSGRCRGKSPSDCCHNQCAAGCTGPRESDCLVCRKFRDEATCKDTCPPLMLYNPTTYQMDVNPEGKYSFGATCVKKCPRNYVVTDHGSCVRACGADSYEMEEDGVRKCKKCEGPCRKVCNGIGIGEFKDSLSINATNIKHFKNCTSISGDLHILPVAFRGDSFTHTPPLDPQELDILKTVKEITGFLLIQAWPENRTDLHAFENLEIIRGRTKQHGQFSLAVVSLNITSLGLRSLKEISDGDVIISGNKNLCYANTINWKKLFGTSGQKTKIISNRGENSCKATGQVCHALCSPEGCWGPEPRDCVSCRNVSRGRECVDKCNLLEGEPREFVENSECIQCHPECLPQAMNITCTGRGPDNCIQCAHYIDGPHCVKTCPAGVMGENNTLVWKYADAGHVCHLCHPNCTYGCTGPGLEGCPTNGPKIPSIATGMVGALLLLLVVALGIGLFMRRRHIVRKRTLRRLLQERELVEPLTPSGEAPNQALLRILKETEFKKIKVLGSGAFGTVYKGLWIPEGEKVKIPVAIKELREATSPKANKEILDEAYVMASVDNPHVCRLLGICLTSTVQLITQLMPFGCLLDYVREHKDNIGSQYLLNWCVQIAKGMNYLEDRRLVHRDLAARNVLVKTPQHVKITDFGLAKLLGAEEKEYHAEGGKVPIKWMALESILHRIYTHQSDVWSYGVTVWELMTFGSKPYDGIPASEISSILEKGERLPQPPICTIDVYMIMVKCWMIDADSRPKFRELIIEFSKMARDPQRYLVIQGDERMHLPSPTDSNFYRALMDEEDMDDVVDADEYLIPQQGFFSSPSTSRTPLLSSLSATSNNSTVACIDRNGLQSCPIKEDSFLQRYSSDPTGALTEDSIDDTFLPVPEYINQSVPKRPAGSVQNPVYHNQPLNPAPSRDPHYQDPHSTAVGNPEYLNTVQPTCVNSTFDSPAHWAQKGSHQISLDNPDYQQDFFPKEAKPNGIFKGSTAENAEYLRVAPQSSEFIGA
pIC50: −log10 of the molar value.
Class condition met: pIC50 at least 7. Class condition not met: pIC50 below 7.

- chemicalStructure: "COc1cc(Nc2ncc(Br)c(Nc3ccc(-c4cnc(C5CC5)cn4)cc3P(C)(C)=O)n2)c(C)cc1N1CCOCC1"
  testTarget: "UniProtKB P00533"
  group: "condition met"
- chemicalStructure: "COc1cc(N2CCOCC2)c(C#N)cc1Nc1ncc(Br)c(Nc2ccc(-c3nccs3)cc2P(C)(C)=O)n1"
  testTarget: "UniProtKB P00533"
  group: "condition met"
- chemicalStructure: "CCc1cc(Nc2ncc(Br)c(Nc3ccc(-c4ncco4)cc3P(C)(C)=O)n2)c(OC)cc1N1CCC(N2CCN(C)CC2)CC1"
  testTarget: "UniProtKB P00533"
  group: "condition met"
- chemicalStructure: "CCc1cc(Nc2ncc(Br)c(Nc3ccc(-c4ccc(C#N)cc4)cc3P(C)(C)=O)n2)c(OC)cc1N1CCC(N2CCN(C)CC2)CC1"
  testTarget: "UniProtKB P00533"
  group: "condition met"
- chemicalStructure: "CCc1cc(Nc2ncc(Br)c(Nc3ccc(-c4nccn4C4CC4)cc3P(C)(C)=O)n2)c(OC)cc1N1CCC(N2CCN(C)CC2)CC1"
  testTarget: "UniProtKB P00533"
  group: "condition not met"
- chemicalStructure: "COc1cnn(-c2ccc(Nc3nc(Nc4cc(OC)c(N5CCC(N6CCN(C)CC6)CC5)cc4C)ncc3Br)c(P(C)(C)=O)c2)c1"
  testTarget: "UniProtKB P00533"
  group: "condition met"
- chemicalStructure: "CCc1cc(Nc2ncc(Cl)c(Nc3ccc(-c4cnn5cnccc45)cc3P(C)(C)=O)n2)c(OC)cc1N1CCC(N2CCN(C)CC2)CC1"
  testTarget: "UniProtKB P00533"
  group: "condition met"
- chemicalStructure: "CCc1cc(Nc2ncc(Br)c(Nc3ccc(-c4cnc(N(C)C)nc4)cc3P(C)(C)=O)n2)c(OC)cc1N1CCC(N2CCN(C)CC2)CC1"
  testTarget: "UniProtKB P00533"
  group: "condition met"
- chemicalStructure: "CCc1cc(Nc2ncc(Br)c(Nc3ccc(-c4cccc(N(C)C)n4)cc3P(C)(C)=O)n2)c(OC)cc1N1CCC(N2CCN(C)CC2)CC1"
  testTarget: "UniProtKB P00533"
  group: "condition met"
- chemicalStructure: "CCc1cc(Nc2ncc(Br)c(Nc3ccc(-c4cn(C)nc4OC)cc3P(C)(C)=O)n2)c(OC)cc1N1CCC(N2CCN(C)CC2)CC1"
  testTarget: "UniProtKB P00533"
  group: "condition met"
- chemicalStructure: "CCc1cc(Nc2ncc(Br)c(Nc3ccc(-c4cnsc4)cc3P(C)(C)=O)n2)c(OC)cc1N1CCC(N2CCN(C)CC2)CC1"
  testTarget: "UniProtKB P00533"
  group: "condition met"
- chemicalStructure: "COc1cnn(-c2ccc(Nc3nc(Nc4cc(OC)c(N5CCOCC5)cc4C4CC4)ncc3Br)c(P(C)(C)=O)c2)c1"
  testTarget: "UniProtKB P00533"
  group: "condition not met"
